Listing: inhibition at 0.05 µM of selected compounds
- targetDesc: UniProt Q99835
- procedureDetails: Smo radioligand competition binding assay
- testSettings: 0.05 μM test compound; read-out: Smo % inh. @ 0.05 μM
Hi! Could you send only the number? It should be in %, unit omitted.

Below, each entry is followed by its recorded inhibition at 0.05 µM result.
* CS(=O)(=O)CC1CCN(c2ccc(Cl)c(-c3ccccn3)n2)CC1 | 93.3
* Cc1cccnc1-c1cc(N2CCC(NS(C)(=O)=O)CC2)ncc1Cl | 92
* Cc1cccnc1-c1cc(N2CCC(CS(C)(=O)=O)CC2)ncc1Cl | 87.8
* CS(=O)(=O)NC1CCN(c2ncc(Cl)c(-c3ccccn3)c2F)CC1 | 80.5
* COCC(=O)N1CCN(c2cc(-c3ncccc3C)c(Cl)cn2)CC1 | 68.9

What inhibition at 0.05 µM appears in the records for this compound with UniProt Q99835? `COCCOCC1CCN(c2cc(-c3ncccc3C)c(Cl)cn2)CC1`
71.6

====

- targetDesc: human Smo (Homo sapiens (Human), UniProt Q99835)
- Sequence (Q99835 181-787): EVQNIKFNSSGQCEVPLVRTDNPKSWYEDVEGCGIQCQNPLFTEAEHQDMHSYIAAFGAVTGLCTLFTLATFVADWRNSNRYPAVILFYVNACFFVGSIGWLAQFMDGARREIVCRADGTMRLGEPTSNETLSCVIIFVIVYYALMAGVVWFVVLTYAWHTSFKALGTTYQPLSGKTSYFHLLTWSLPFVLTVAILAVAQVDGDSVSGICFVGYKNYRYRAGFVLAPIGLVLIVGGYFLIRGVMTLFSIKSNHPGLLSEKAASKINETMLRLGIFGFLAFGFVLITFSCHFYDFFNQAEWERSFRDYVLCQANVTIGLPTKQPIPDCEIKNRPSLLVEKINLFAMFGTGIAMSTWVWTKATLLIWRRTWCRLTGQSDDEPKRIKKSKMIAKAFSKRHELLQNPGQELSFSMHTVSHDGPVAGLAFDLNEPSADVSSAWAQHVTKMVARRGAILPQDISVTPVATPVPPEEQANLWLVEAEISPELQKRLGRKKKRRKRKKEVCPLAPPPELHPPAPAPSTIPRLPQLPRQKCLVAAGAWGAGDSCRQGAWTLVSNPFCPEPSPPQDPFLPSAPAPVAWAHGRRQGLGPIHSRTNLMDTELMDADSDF
- procedureDetails: Smo radioligand competition binding assay
- testSettings: 0.05 μM test compound; read-out: Smo % inh. @ 0.05 μM
reportedProperty: inhibition at 0.05 µM (%)
Hi! Could you send only the number? It should be in %, unit omitted.

Below, each entry is followed by its recorded inhibition at 0.05 µM result.
- Cc1cnc(-c2ccnc(N3CCC(NS(C)(=O)=O)CC3)c2)c(C)c1 [Example A-143]: 96.3
- Cc1cccnc1-c1cc(N2CCC(C(=O)NC3CCOCC3)CC2)ncc1Cl [Example A-77]: 87.7
- CCS(=O)(=O)NC1CCN(c2cc(-c3ncc(C)cc3C)c(Cl)cn2)CC1 [Example A-121]: 101

Now take the following compound into account.
Given the entry COc1cnc(NC(=O)C2CCN(c3cc(-c4ncccc4C)c(Cl)cn3)CC2)cn1 [Example A-59] , report its measured inhibition at 0.05 µM.
89.5

====

Listing: IC50 of selected compounds
- System: Gli-Luc/MEF cells
- procedureDetails: Gli-Luc/MEF assay
- Type: cell-based, mouse
- testSettings: Mus musculus, MEF; Shh-stimulated luciferase, 48 hours
- Description: The Gli-Luc/MEF cells obtained from Gli-Luc transgenic mice contain a luciferase reporter gene under the control of the Gli response element. Luciferase activity stimulated with Sonic hedgehog ligand was inhibited by Smo inhibitors, and IC50 was subsequently calculated. Plates were incubated at 37° C. and 5% CO2 overnight. […] Plates were kept at room temperature for 5 minutes, and then read on an Envision Luminescence plate reader (Perkin-Elmer). […]
Hi! Could you send only the number? It should be in nM, unit omitted.

Below, each entry is followed by its recorded IC50 result.
* Cc1cc(F)cnc1-c1nc(N2CCC(NS(C)(=O)=O)CC2)ccc1Cl | 39.5
* Cc1cccnc1-c1cc(N2CCC(C(=O)N3CCN(c4ccc(O)nn4)CC3)CC2)ncc1Cl | 38.8

Given the entry `Cc1cccnc1-c1cc(N2CCC(C(=O)NCCc3c[nH]cn3)CC2)ncc1Cl` , report its measured IC50.
123

Given the entry `Cc1cccnc1-c1cc(N2CCC(C(=O)N[C@@H]3CCN(S(C)(=O)=O)C3)CC2)ncc1Cl` , report its measured IC50.
78.2

Given the entry `Cc1cccnc1-c1ccnc(N2CCC(NS(C)(=O)=O)CC2)n1` , report its measured IC50.
27.4

Given the entry `Cc1cccnc1-c1nc(N2CCC(CS(C)(=O)=O)CC2)ncc1Cl` , report its measured IC50.
13.3

Given the entry `CCOC(=O)N1CCN(c2cc(-c3ncccc3C)c(Cl)cn2)CC1` , report its measured IC50.
48.5

Given the entry `COC(=O)N1CCN(c2ncc(Cl)c(-c3ncccc3C)n2)CC1` , report its measured IC50.
109

Given the entry `Cc1cnc(-c2nc(N3CCC(NC(=O)CO)CC3)ccc2Cl)c(C)c1` , report its measured IC50.
19.5

Given the entry `Cc1cc(F)cnc1-c1cc(N2CCN(S(=O)(=O)CC(C)(C)O)CC2)ncc1Cl` , report its measured IC50.
11.2

Given the entry `Cc1cnc(-c2cc(N3CCC(NC(=O)CO)CC3)ncc2Cl)c(C)c1` , report its measured IC50.
11.7

Given the entry `Cc1cccnc1-c1cc(N2CCC(C(=O)N[C@@H]3CS(=O)(=O)C[C@H]3O)CC2)ncc1Cl` , report its measured IC50.
54.4

Given the entry `Cc1cccnc1-c1cc(N2CCN(C(=O)C(C)C)CC2)ncc1Cl` , report its measured IC50.
80.2

Given the entry `CN(C)CC(=O)NC1CCN(c2ccc(Cl)c(-c3ccccn3)n2)CC1` , report its measured IC50.
8.12

Given the entry `Cc1cccnc1-c1cc(N2[C@@H]3CC[C@H]2CN(C(=O)CC(C)(C)O)C3)ncc1Cl` , report its measured IC50.
41.5

Given the entry `Cc1cnc(-c2cc(N3CCN(C(=O)CN(C)C)CC3)ncc2Cl)c(C)c1` , report its measured IC50.
12.3

====

- Test system: Gli-Luc/MEF cells
- procedureDetails: Gli-Luc/MEF assay
- Assay type: cell-based, mouse
- testSettings: Mus musculus, MEF; Shh-stimulated luciferase, 48 hours
Binary label based on IC50 with cut-off 30 nM: below gives Fulfilled, not below gives Not fulfilled.

As a guide, the following entries are already answered.
- Cc1cccnc1-c1cc(N2CCC(C(=O)NC3(CO)CCCC3)CC2)ncc1Cl [Example A-76]: Fulfilled
- COCCS(=O)(=O)NC1CCN(c2ccc(Cl)c(-c3ccccn3)n2)CC1 [Example A-123]: Fulfilled
- Cc1cccnc1-c1cc(N2CCC(C(=O)NCC3CCCCO3)CC2)ncc1Cl (stereo not shown) [Example A-83]: Not fulfilled
- Cc1cccnc1-c1cc(N2CCC(C(=O)NCC3CN(CC4CC4)C(=O)CO3)CC2)ncc1Cl (stereo not shown) [Example A-74]: Fulfilled
- Cc1cccnc1-c1cc(N2CCC(C(=O)N[C@@H]3CCCC[C@H]3O)CC2)ncc1Cl [Example A-81]: Fulfilled
- CS(=O)(=O)NC1CCN(c2cc(-c3ncc(Cl)cc3Cl)c(Cl)cn2)CC1 [Example A-12]: Not fulfilled
- NS(=O)(=O)CC1CCN(c2ccc(Cl)c(-c3ccccn3)n2)CC1 [Example A-91]: Fulfilled
- Cc1cc(F)cnc1-c1cc(N2CCC(NC(=O)CC(C)(C)O)CC2)ncc1Cl [Example A-146]: Fulfilled
- O=C(CCO)NC1CCN(c2ccc(Cl)c(-c3ccccn3)n2)CC1 [Example A-130]: Not fulfilled
- Cc1cccnc1-c1cc(N2CCC(C(=O)N[C@@H]3CC[C@@H](O)C3)CC2)ncc1Cl [Example A-66]: Not fulfilled

Lab note: confirm whether the reported IC50 for this molecule is below 30 nM, equality not counting. molecule: Cc1cnc(-c2cc(N3CCC(S(C)(=O)=O)CC3)ncc2Cl)c(C)c1 [Example A-134]
Not fulfilled

Lab note: confirm whether the reported IC50 for this molecule is below 30 nM, equality not counting. molecule: CS(=O)(=O)NC1CCN(c2cc(-c3ccc(Cl)cn3)c(Cl)cn2)CC1 [Example A-11]
Not fulfilled

Lab note: confirm whether the reported IC50 for this molecule is below 30 nM, equality not counting. molecule: Cc1cnc(-c2cc(N3CCN(C(=O)CCS(C)(=O)=O)CC3)ncc2Cl)c(C)c1 [Example A-116]
Fulfilled

Lab note: confirm whether the reported IC50 for this molecule is below 30 nM, equality not counting. molecule: COCCC(=O)NC1CCN(c2cc(-c3ncccc3C)c(Cl)cn2)CC1 [Example A-27]
Fulfilled

Lab note: confirm whether the reported IC50 for this molecule is below 30 nM, equality not counting. molecule: Cc1cccnc1-c1cc(N2CCC(C(=O)N(C)[C@@H]3CS(=O)(=O)C[C@H]3O)CC2)ncc1Cl [Example A-70]
Fulfilled

Lab note: confirm whether the reported IC50 for this molecule is below 30 nM, equality not counting. molecule: Cc1cnc(-c2cc(N3CCC(NS(C)(=O)=O)CC3)ncc2Cl)c(C)c1 [Example A-14]
Fulfilled

Lab note: confirm whether the reported IC50 for this molecule is below 30 nM, equality not counting. molecule: CS(=O)(=O)NC1CCN(c2ccc(Cl)c(-c3ccccn3)n2)CC1 [Example A-15]
Not fulfilled

====

- targetDesc: UniProt:Q99835
- procedureDetails: Smo radioligand competition binding assay
- testSettings: 0.05 μM test compound; read-out: Smo % inh. @ 0.05 μM
Listing: inhibition at 0.05 µM of selected molecules
Hi! Could you send only the number? It should be in %, unit omitted.

Below, each entry is followed by its recorded inhibition at 0.05 µM result.
• Cc1cccnc1-c1nc(N2CCN(S(C)(=O)=O)CC2)ncc1Cl = 76.9
• Cc1cccnc1-c1cc(N2CCC(C(=O)N3CCCC(O)C3CO)CC2)ncc1Cl (centres unmarked) = 81.5
• CS(=O)(=O)NC1CCN(c2cc(-c3ncccc3Cl)c(Cl)cn2)CC1 = 75
• Cc1cccnc1-c1nc(N2CCC(NS(C)(=O)=O)CC2)ncc1Cl = 94.8
• Cc1cccnc1-c1cc(N2CCC(C(=O)N3CCN(c4ccc(O)nn4)CC3)CC2)ncc1Cl = 92.6

Given the entry `Cc1ccc(-c2nc(N3CCN(C(=O)CCS(C)(=O)=O)CC3)ccc2Cl)nc1` , report its measured inhibition at 0.05 µM.
94.7

Given the entry `Cc1cccnc1-c1cc(N2CC(C(=O)N(C)[C@@H]3CS(=O)(=O)C[C@H]3O)C2)ncc1Cl` , report its measured inhibition at 0.05 µM.
74.4

Given the entry `Cc1cc(F)cnc1-c1cc(N2CCC(NS(C)(=O)=O)CC2)ncc1Cl` , report its measured inhibition at 0.05 µM.
91.5

Given the entry Cc1cccnc1-c1cc(N2CCC(C(=O)NCCC3C(=O)Nc4ccccc43)CC2)ncc1Cl (centres unmarked) , report its measured inhibition at 0.05 µM.
91.9

Given the entry `Cc1ccc(-c2nc(N3CCC(NS(C)(=O)=O)CC3)ncc2Cl)nc1` , report its measured inhibition at 0.05 µM.
88.5

Given the entry `Cc1cc(F)cnc1-c1cc(N2CCN(C(=O)CCS(C)(=O)=O)CC2)ncc1Cl` , report its measured inhibition at 0.05 µM.
101

Given the entry `Cc1cccnc1-c1cc(N2CCN(C(=O)C(C)(C)C)CC2)ncc1Cl` , report its measured inhibition at 0.05 µM.
95

Given the entry `Cc1ccc(-c2cccc(N3CCC(NS(C)(=O)=O)CC3)n2)nc1` , report its measured inhibition at 0.05 µM.
93

Given the entry `COC(=O)N1CCN(c2ncc(Cl)c(-c3ncccc3C)n2)CC1` , report its measured inhibition at 0.05 µM.
72.7

Given the entry `Cc1cccnc1-c1cc(N2CCC(NC(=O)CN(C)C)CC2)ncc1Cl` , report its measured inhibition at 0.05 µM.
89.2

Given the entry `CS(=O)(=O)NC1CCN(c2cc(-c3ncc(Cl)cc3Cl)c(Cl)cn2)CC1` , report its measured inhibition at 0.05 µM.
88

Given the entry `COCCS(=O)(=O)N1CCN(c2ccc(Cl)c(-c3ccccn3)n2)CC1` , report its measured inhibition at 0.05 µM.
58.8
